This section presents sequences with their documented PBM binding z-score values.
system: PPARg:RXRa 270nM:90nM, anti-RXR (NR concentration 270 nM, RXRa partner concentration 90 nM); test: PBM binding z-score (relative to random genomic background probes); higher = stronger binding; sequences stand for … in GC…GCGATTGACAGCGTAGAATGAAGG
Respond using a number only.

| sequenceCode | val |
| --- | --- |
| ACTAGCAGGCCAAGTTGGGGTCACTCAAACAAAG | 2.88 |

Incoming: Which PBM binding z-score value is on record for GCTTGTGGATCAAGGTTAAGAAAGACTAAGCTAA ?
Outgoing: 1.79

Incoming: Which PBM binding z-score value is on record for CCTACTGGGCCAAAGTTCATTGATTCCAATGCTC ?
Outgoing: 9.53

---

This section presents sequences with their documented PBM binding z-score values.
test system: RARa:RXR (NR concentration 270 nM, RXRa partner concentration 90 nM); assay: PBM binding z-score (relative to random genomic background probes); higher = stronger binding; sequences stand for … in GC…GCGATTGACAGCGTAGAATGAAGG
Respond using a number only.

Guide cases for PBM binding z-score, answers given:
| sequenceCode | PBM binding z-score |
| --- | --- |
| CGAACTAGGTCAAGGACAGTCAATCTCCGCACGC | 2.09 |
| GCTGCTAGGTCAGGTTTGTCAGCTAACGGGTACG | 0.51 |
| TGAATGCGGTTAAAGATCAGGGAACGTGGCGTCG | -0.11 |
| AATTACGGGTCAACGAGGTTATAGCACGCGTATA | 5.49 |
| ACTTACGGGGCAACGAGGTTATAGCACGCGTATA | 1.73 |

Incoming: Which PBM binding z-score value is on record for AGAATGAGATTATACGTAGATCAGGGAAGAAAGT ?
Outgoing: -0.447

Incoming: Which PBM binding z-score value is on record for ACTTACGGGTCAACGAGGTTGTAGCACGCGTATA ?
Outgoing: 5.07

Incoming: Which PBM binding z-score value is on record for ACTAGCAGTCCAAGGGTCACTCAAGATTAGTCCG ?
Outgoing: 3.39

Incoming: Which PBM binding z-score value is on record for CGAACTAGGTCAAGGGCAGTGAATCTCCGCACGC ?
Outgoing: 1.86

Incoming: Which PBM binding z-score value is on record for TCTTGTAGTTCAGCAGGTTAAGAAAGCTGGCCAA ?
Outgoing: 1.18

---

test system: RARb homodimer (NR concentration 270 nM); assay: PBM binding z-score (relative to random genomic background probes); higher = stronger binding; sequences stand for … in GC…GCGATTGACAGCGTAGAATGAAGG
This section presents sequences with their documented PBM binding z-score values.
Respond using a number only.

Guide cases for PBM binding z-score, answers given:
| sequenceCode | val |
| --- | --- |
| GATACAGGGACAGCTAGAGGCCAGAGTATGGAAA | 0.97 |
| CTCGAAAGGTCGTGCACAGGTGAGTATACCAAAC | 3.18 |

Incoming: Which PBM binding z-score value is on record for TTTCCAAGGTGAAGGTCGTTGATCCCTCTGTAGA ?
Outgoing: 2.06

Incoming: Which PBM binding z-score value is on record for GCAGACACGTGAAACGCAGGTAACTCAGGGTGGC ?
Outgoing: -0.78
